// data source = the supplement of paper PMC9262897

# Test system: E. coli TESEC Mtb Alr
# assay: growth (OD600 after 10 h); higher = more growth (less inhibition)
# test.conditions: arabinose 10000000 nM; compound 0.1 mM; raw OD600 reference: median of DMSO wells 0.146, cell-free background 0.041
Counter-ions that a name gives are not always drawn.
measurement.name: growth

CC(C)(O/N=C(\C(=O)N[C@@H]1C(=O)N2C(C(=O)[O-])=C(C[n+]3ccccc3)CS[C@H]12)c1csc(N)n1)C(=O)O [Ceftazidime pentahydrate] : 0.0674
CC(C)C(=O)c1c(C(C)C)nn2ccccc12 : 0.127
CNCC(O)c1ccc(OC(=O)C(C)(C)C)c(OC(=O)C(C)(C)C)c1 (stereo not drawn) [Dipivefrin hydrochloride] : 0.142
CN1CCN(c2c(F)cc3c(=O)c(C(=O)O)cn4c3c2SCC4)CC1 : 0.0429
NC12CC3CC(CC(C3)C1)C2 [Adamantamine fumarate] : 0.145
CN1CCCC(n2nc(Cc3ccc(Cl)cc3)c3ccccc3c2=O)CC1 (stereo not drawn) [Azelastine HCl] : 0.164
N=C(N)NS(=O)(=O)c1ccc(N)cc1 : 0.143
O=C(O)Cc1cc(I)c(Oc2ccc(O)c(I)c2)c(I)c1 : 0.0558
Cc1nnc(SCC2=C(C(=O)O)N3C(=O)[C@@H](NC(=O)Cn4cnnn4)[C@H]3SC2)s1 [Cefazolin sodium salt] : 0.145
CCN[C@H]1C[C@H](C)S(=O)(=O)c2sc(S(N)(=O)=O)cc21 [Dorzolamide hydrochloride] : 0.15
N[C@@H]1CCCCN(c2c(F)cc3c(=O)c(C(=O)O)cn(C4CC4)c3c2Cl)C1 [Besifloxacin hydrochloride] : 0.0414
CCCc1cc(C(N)=S)ccn1 [Prothionamide] : 0.136
CC(C)Oc1ccc2c(=O)c(-c3ccccc3)coc2c1 : 0.138
Cc1cc2cc3c(C)cc(=O)oc3c(C)c2o1 : 0.165
COc1cc2nc(N(C)CCCNC(=O)C3CCCO3)nc(N)c2cc1OC (stereo not drawn) [Alfuzosin hydrochloride] : 0.155
C#CCN(C)Cc1ccccc1 [Pargyline hydrochloride] : 0.142
CCc1nc(N)nc(N)c1-c1ccc(Cl)cc1 : 0.139
CCc1c(C)[nH]c2c1C(=O)C(CN1CCOCC1)CC2 (stereo not drawn) [Molindone hydrochloride] : 0.154
